Measured % Inhibition values are reported for all entries that follow.
tested on: Plasmodium falciparum; experiment: Primary screen in NF54 nanoGlo assay, in single point, at 2uM, 72h; type: functional, Erythrocyte; conditions: timepoint 72 hour
Hit rate of the full screen: of about 150,000 compounds, about 540 (0.36%) showed an effect of 50% or more. The sample as a whole holds a higher share of strong results than the screen did.
Endpoint label: % Inhibition (%)

INSERT INTO assay_data (compound, assay_system, endpoint_label, reported_value) VALUES
  ('CN(Cc1ccsc1)C(=O)c1cc2ccccc2[nH]1', 'Plasmodium falciparum', '% Inhibition', 58),
  ('CCCNS(=O)(=O)c1ccc(C(=O)N2C[C@H]3CC[C@@H](C2)N(C)C3)cc1', 'Plasmodium falciparum', '% Inhibition', -7),
  ('CN(CC(=O)Nc1cccc(F)c1)C(=O)C[C@@H]1C=CCC1', 'Plasmodium falciparum', '% Inhibition', 12),
  ('CCOc1cccc(-c2ccc3nc(-c4cccc(OC)c4)c(CCC(=O)NCCN4CCCC4)n3c2)c1', 'Plasmodium falciparum', '% Inhibition', 59),
  ('Cc1ccc(C(=O)Nc2c(C)nc(N3CCOCC3)nc2C)cc1C', 'Plasmodium falciparum', '% Inhibition', 13),
  ('Cc1n[nH]c2c1CN(Cc1[nH]cc(C)c(=O)c1C)CC2', 'Plasmodium falciparum', '% Inhibition', -8),
  ('CC1CCC(C(C)C)C(OC(=O)COC(=O)c2ccncc2)C1 (centres undefined)', 'Plasmodium falciparum', '% Inhibition', -10),
  ('COc1ccc(-c2cc(C(F)(F)F)nc(-n3nc(-c4cccc(OC)c4)c(Cl)c3-c3cccc(OC)c3)n2)cc1', 'Plasmodium falciparum', '% Inhibition', 91),
  ('C=CCOC1CCN(C(=O)CCN2CCOC2=O)CC1', 'Plasmodium falciparum', '% Inhibition', -4),
  ('O=C(Cn1cc2c(n1)CCCCCC2)NCCc1ccc(Cl)cc1', 'Plasmodium falciparum', '% Inhibition', 6),
  ('O=C1COc2ccccc2N1Cc1nc(-c2ccc(N3CCOCC3)cc2)no1', 'Plasmodium falciparum', '% Inhibition', -19),
  ('CC(C)N(CC(=O)Nc1nccs1)Cc1ccccn1', 'Plasmodium falciparum', '% Inhibition', 65),
  ('COc1cccc(-c2nn(-c3nc(-c4ccccc4)cc(C(F)(F)F)n3)c(-c3cccc(OC)c3)c2Cl)c1', 'Plasmodium falciparum', '% Inhibition', 38),
  ('CCOc1cccc(-c2ccc3nc(-c4cccc(OC)c4)c(CCC(=O)NC4CC4)n3c2)c1', 'Plasmodium falciparum', '% Inhibition', 4);

###

Overview of recorded Z score for various molecules
system: Plasmodium falciparum; assay: Primary screen in NF54 nanoGlo assay, in single point, at 2uM, 72h; format: functional, Erythrocyte; conditions: timepoint 72 hour
Screen size: about 150,000 compounds; about 540 (0.36%) showed an effect of 50% or more. Many of the other results were omitted from the sample, so strong results are more common in it than they were.
Endpoint label: Z score

INSERT INTO assay_data (molecule, endpoint_label, reported_value) VALUES
  ('COc1cccc(-c2nc(C)c(C(=O)NC[C@@H]3CCCN4CCCCC34)s2)c1 (stereo not given in full)', 'Z score', 0.17),
  ('Cn1cccc(C(=O)N2CCC(c3nnc(C(F)(F)F)o3)CC2)c1=O', 'Z score', 1.33),
  ('CC1CCCC(C)N1S(=O)(=O)c1ccc(NC(=O)CCC(=O)c2ccc3c(c2)OCCO3)cc1 (stereo not given)', 'Z score', 0.64),
  ('CC(C)(C)OC(=O)N1CC(OC(=O)CC2(CS(C)(=O)=O)CC2)C1', 'Z score', 1.78),
  ('COc1ccc(CCNC(=O)c2cnn3c4c(cnc23)C[C@@H](C)CC4)cc1OC', 'Z score', -4.54);

###

system: Plasmodium falciparum; assay: Primary screen in NF54 nanoGlo assay, in single point, at 2uM, 72h; assay type: functional, Erythrocyte; details: timepoint 72 hour
About 540 (0.36%) of roughly 150,000 compounds showed an effect of 50% or more. Many of the other results were omitted from the sample, so strong results are more common in it than they were.
Endpoint label: % Inhibition (%)

INSERT INTO measurements (compound, assay_system, readout_unit, reported_value) VALUES
  ('COc1ccc(-c2cn3c(C(=O)N4CCNC(=O)C4)csc3n2)cc1F', 'Plasmodium falciparum', '%', -19),
  ('COC(=O)C1=C(c2ccccc2)S/C(=C2/C(=S)C(C)(C)Nc3ccc(C)cc32)S1', 'Plasmodium falciparum', '%', -8),
  ('Cc1cc(C(=O)NC2(c3ncccn3)CCOCC2)c(C)s1', 'Plasmodium falciparum', '%', -4),
  ('O=C(Nc1cc(-c2onc3c2CCCC3)cc(C(F)(F)F)c1)c1cncc(Br)c1', 'Plasmodium falciparum', '%', 96),
  ('Cc1nc(-c2ccco2)ccc1C(=O)N[C@@H](C)c1nnnn1C', 'Plasmodium falciparum', '%', -12),
  ('CCCc1c(C(=O)N2CCNc3ncccc32)cnn1C1CCCC1', 'Plasmodium falciparum', '%', -7),
  ('CCNC(=O)N1CC[C@H](Oc2ccc3ccccc3n2)C1', 'Plasmodium falciparum', '%', 57),
  ('O=C(Cn1ncn2nc(-c3ccccc3)cc2c1=O)N1CCCCC1', 'Plasmodium falciparum', '%', -20),
  ('Cc1noc(C(F)(F)F)c1C(=O)NCC1(C2(O)CCC2)CC1', 'Plasmodium falciparum', '%', -10),
  ('CCNC(=O)N1CCN(c2ccc(-c3noc(C(F)(F)F)n3)cn2)CC1', 'Plasmodium falciparum', '%', 12),
  ('CCc1nccc(-c2c(-c3ccccc3)ncn2CCN2CCOCC2)n1', 'Plasmodium falciparum', '%', -6),
  ('CC=Cc1ccc(OCC(=O)Nc2cccc(NC(=O)Nc3ccccc3)c2)c(OC)c1', 'Plasmodium falciparum', '%', -7),
  ('COc1cc(Cl)c(C)cc1NC(=O)c1cc(=O)n(-c2ccc(C)cc2)[nH]1', 'Plasmodium falciparum', '%', 53),
  ('O=C(CCc1cccc(Cl)c1)N1CC[C@H](N2CCc3ccccc3C2)C1', 'Plasmodium falciparum', '%', -5),
  ('COc1cc(Cl)c(C)cc1NC(=O)c1nc2cc(C)c(C)cc2n(C)c1=O', 'Plasmodium falciparum', '%', 37),
  ('CNCCc1c(-c2ccccc2)[nH]n(-c2ccccc2)c1=O', 'Plasmodium falciparum', '%', 82),
  ('O=C(Nc1ccc(-c2onc3c2CCCC3)cc1)c1c(Cl)cc(Cl)cc1Cl', 'Plasmodium falciparum', '%', -2),
  ('CCc1nnc(CNC(=O)C(=O)c2ccco2)o1', 'Plasmodium falciparum', '%', -5),
  ('CCCCCc1c(C)nc2[nH]n(-c3ccccc3)c(=O)c2c1O', 'Plasmodium falciparum', '%', 34),
  ('COc1cccc(OC2CN(C[C@H]3COc4ccccc4O3)C2)c1', 'Plasmodium falciparum', '%', 3),
  ('Cc1ccsc1CN(Cc1ccccc1)C(=O)CN(C(=O)C1CCCC1)C1CCCCC1', 'Plasmodium falciparum', '%', -2),
  ('O=C(NC[C@H](O)c1cccnc1)c1ncoc1C1CC1', 'Plasmodium falciparum', '%', -7),
  ('O=C(Nc1c(C(=O)Nc2ccc(F)c(F)c2)oc2ccccc12)c1cc2ccccc2o1', 'Plasmodium falciparum', '%', -13),
  ('COc1cc(C=C(C(=O)Nc2ccccc2F)C(=O)Nc2ccccc2F)ccc1OCC(=O)Nc1cccc(C(F)(F)F)c1', 'Plasmodium falciparum', '%', 80),
  ('O=C(CCc1ccc(Cl)c(F)c1)N1CC(N2CCc3ccccc3C2)C1', 'Plasmodium falciparum', '%', -9);
